Reported composite z-score values are given for each entry in this list.
Assay: small-molecule microarray binders of probe aEGFR, primary screen, biochemical, biotinylated probe, 635/667 nm fluorescence (AID 1097);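 further: probe is a biotinylated anti-EGFR antibody binding compounds printed on slides; score combines fluorescence near 667 nm and signal to noise of each spot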
Details: higher = more signal
Just the number.

Some molecules with known composite z-score results, for comparison:
* C=C1C(=O)C=C2CN(C(=O)c3ccccc3)[C@@](Cc3ccc(F)cc3)(C(=O)OC)[C@@H]12 | 0.0071
* CN(C)C(=O)[C@]1(CCS(=O)(=O)c2ccccc2)N=C(c2ccc(OCCCO)cc2)O[C@@H]1c1ccccc1CN=[N+]=[N-] | -0.025
* COc1ccc(NN2C(C(O)c3ccccc3)C=CC3C(=O)N(C4CCCCC4)C(=O)C32)cc1 (centres undefined) | 0.0953
* C=CCNC(=O)[C@@H]1[C@H]2C(=O)O[C@H](c3ccccc3)[C@H](c3ccccc3)N2[C@H](c2ccc(O)cc2)[C@@]12C(=O)N(C(=O)OCCOC)c1ccc(C#CCC(C(=O)OC)C(=O)OC)cc12 | -0.027
* CCOC(=O)C[C@H]1[C@H](OC(=O)c2cc3ccccc3oc2=O)[C@@H](NC(=O)c2ccc(-c3ccccc3)cc2)c2cc(OCCCO)ccc2N1C(=O)Cc1ccc(OC)cc1 | 0.148

Recorded result, COCCCNC(=O)[C@@]1(Cc2ccccc2I)c2ccccc2C(=O)N(Cc2ccccc2OC)[C@H]1c1ccc(CO)cc1 , composite z-score: -0.331

Recorded result, [N-]=[N+]=Nc1ccccc1C[C@@]1(C(=O)NCC(O)CO)N=C(c2ccc(OCCCO)cc2)O[C@@H]1c1ccccc1N=[N+]=[N-] (some centres undefined) , composite z-score: 0.0001

Recorded result, COc1ccc([Si](C)(C)[C@H]2[C@H](CC(=O)N3CCC[C@H]3CO)O[C@@]3(C(=O)N(Cc4cccc(N5CCCCC5=O)c4)c4ccccc43)[C@@H]2C)cc1 , composite z-score: -0.139

Recorded result, O=C1NC(=O)C2C1C=CC(C(O)C(O)CO)N2Nc1ccccn1 (centres undefined) , composite z-score: 0.0713

Recorded result, CCOC(=O)C1=CCC(c2cccn2C(=O)OC(C)(C)C)N(S(=O)(=O)c2ccc(C)cc2)C1 (centres undefined) , composite z-score: -0.0004

Recorded result, O=C1O[C@@H](c2ccccc2)[C@@H](c2ccccc2)N2[C@@H](c3ccccc3OCCO)[C@]3(C(=O)Nc4ccc(C#CC5(O)CCCCCC5)cc43)[C@@H](C(=O)N3CCCCCCC3)[C@H]12 , composite z-score: 1.52

Recorded result, COC(=O)c1c2oc(c1C(=O)OC)C(=O)N[C@H](Cc1ccccc1)Cn1cc(nn1)C1(CCCCC1)NC(=O)N[C@H](CO)CC2 , composite z-score: -0.158

Recorded result, C=C(COC)/C(=C/C[C@@H](OC(=O)c1ccncc1)c1ccccc1OCCO)c1cnc2ccccc2c1 , composite z-score: 0.0533

Recorded result, COc1ccc(CCNC(=O)[C@@H]2c3ccccc3C(=O)N(C(C)C)[C@H]2c2ccc(CO)cc2)cc1 , composite z-score: -0.238
